Molecular target: IMP-1 (Serratia marcescens, UniProt P52699)
Sequence (P52699 19-246, looked up, species assumed): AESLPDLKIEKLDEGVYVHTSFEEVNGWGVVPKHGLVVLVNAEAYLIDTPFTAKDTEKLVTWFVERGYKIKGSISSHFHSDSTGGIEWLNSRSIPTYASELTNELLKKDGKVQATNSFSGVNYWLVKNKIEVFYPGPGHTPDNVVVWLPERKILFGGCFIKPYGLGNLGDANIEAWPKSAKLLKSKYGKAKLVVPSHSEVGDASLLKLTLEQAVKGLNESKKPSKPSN
Assay: Enzyme activity: determination of IC50, fluorescence assay with CCF2-FA substrate
Format: biochemical
Conditions: enzyme 2 pM, CCF2-FA 1.25 μM, 2 hours at 25° C.; read-out: IMP1 IC50
QUANTITY: pIC50
# reply with the number alone; pIC50 is -log10 of concentration in mol/L

MOLECULE | pIC50
CC(C)[C@H](C(=O)O)[C@H](Cc1ccc(C2=CCNC2)cc1)c1nnn[nH]1 [Example 60] | 6.12

So what does the record say about pIC50 for CC(C)C[C@H](C(=O)O)[C@H](Cc1ccc(-c2ccc(CO)cc2)nc1)c1nn[nH]n1 [Example 177] ?
6.85

###

Molecular target: IMP-1 (Serratia marcescens)
Assay: Enzyme activity: determination of IC50, fluorescence assay with CCF2-FA substrate
Format: biochemical
Conditions: enzyme 2 pM, CCF2-FA 1.25 μM, 2 hours at 25° C.; read-out: IMP1 IC50
# strict inequality: IC50 < 1000 nM yields met, everything else yields not met

Below are worked cases with known answers.
COMPOUND | CATEGORY LABEL
CC(C)[C@H](C(=O)O)[C@H](Cc1cccc(NCCO)n1)c1nnn[nH]1 [Example 138] | not met
CC(C)C[C@H](C(=O)O)[C@H](Cc1ccc(-c2ccnc(N)c2)cn1)c1nn[nH]n1 [Example 179] | not met
CCC[C@H](C(=O)O)[C@H](Cc1ccc(N2CCC[C@H](N)C2)cc1)c1nn[nH]n1 [Example 230] | not met
CC(C)[C@H](C(=O)O)[C@H](Cc1ccc(C2CCNCC2)nc1)c1nnn[nH]1 [Example 104] | not met
CCC[C@H](C(=O)O)[C@H](Cc1ccc(-c2cncc(CN3CCCCC3)c2)cc1)c1nn[nH]n1 [Example 191] | not met
CC[C@H](C(=O)O)[C@@H](c1nnn[nH]1)[C@@H](C)c1ccccc1 [Example 29] | not met
CC[C@H](C)[C@H](C(=O)O)[C@H](Cc1ccc(C2CCNC2)cc1)c1nnn[nH]1 (stereo partly shown) [Example 81] | met
O=C(O)[C@@H](C1CCCC1)[C@H](Cc1ccc(C2CCNCC2)cc1)c1nnn[nH]1 [Example 80] | met

Would you kindly look at the next entry?
Criterion: IC50 strictly below 1000 nM. Is it met by CC(C)C[C@H](C(=O)O)[C@H](Cc1ccc(C(N)=O)cc1)c1nnn[nH]1 [Example 48] ?
met

###

Tested on: Klebsiella pneumoniae expressing VIM-1 (IHMA599644)
Test: Antibiotic potentiation activity: synergistic concentration (MITC95) with imipenem, growth by OD600
Type: cell-based
Settings: 95% inhibition of bacterial growth, strain IHMA599644
# VIM1 KP599644 MITC95 >= 20 µM gives MET, anything below gives NOT MET

Below are worked cases with known answers.
COMPOUND | TEST TARGET | CATEGORY LABEL
CCC[C@H](C(=O)O)[C@H](Cc1ccc(NC2CCCN(CCC)C2)cc1)c1nn[nH]n1 (stereo partly drawn) | Klebsiella pneumoniae expressing VIM-1 (IHMA599644) | MET
CC(C)[C@H](C(=O)O)[C@H](Cc1ccc(-c2cnc(NCCO)nc2)cc1)c1nnn[nH]1 | Klebsiella pneumoniae expressing VIM-1 (IHMA599644) | MET
CC(C)C[C@H](C(=O)O)[C@H](Cc1ccc(N)cn1)c1nnn[nH]1 [Example 113, 2,2,2-trifluoroacetate] | Klebsiella pneumoniae expressing VIM-1 (IHMA599644) | NOT MET
CCC[C@H](C(=O)O)[C@@H](Cc1ccc(-c2ccc3c(c2)OCC(=O)N3)cn1)c1nnn[nH]1 | Klebsiella pneumoniae expressing VIM-1 (IHMA599644) | MET
CCC[C@H](C(=O)O)[C@H](Cc1cccnc1Cl)c1nnn[nH]1 | Klebsiella pneumoniae expressing VIM-1 (IHMA599644) | MET
CCC[C@H](C(=O)O)[C@H](Cc1ccc(N2CCN(CCO)CC2)cc1)c1nn[nH]n1 | Klebsiella pneumoniae expressing VIM-1 (IHMA599644) | MET

Is it the case that CCC[C@H](C(=O)O)[C@H](Cc1ccc(-c2cccc(CN)c2)cc1)c1nn[nH]n1 has VIM1 KP599644 MITC95 reaching or exceeding 20 µM?
NOT MET

Is it the case that CCC[C@H](C(=O)O)[C@H](Cc1ccc(-c2ccc3c(c2)CNC3)nc1)c1nnn[nH]1 has VIM1 KP599644 MITC95 reaching or exceeding 20 µM?
NOT MET

Is it the case that CCC[C@H](C(=O)O)[C@H](Cc1ccc(C(F)(F)F)cc1)c1nnn[nH]1 has VIM1 KP599644 MITC95 reaching or exceeding 20 µM?
MET

###

The reader will find reported pIC50 values listed item by item below.
Target: VIM-1 (Pseudomonas aeruginosa, UniProt A0A0F7KYQ8)
Assay: Enzyme activity: determination of IC50, fluorescence assay with CCF2-FA substrate
Type: biochemical
Conditions: VIM-1 enzyme 30 pM, CCF2-FA 1.25 μM, 2 hours at 25° C.; read-out: VIM1 IC50
# reply with the number alone; pIC50 is -log10 of concentration in mol/L

As a guide, the following entries are already answered.
COMPOUND | pIC50
CC(C)C[C@H](C(=O)O)[C@H](Cc1ccc(N2CCC(CN)C2)nc1)c1nnn[nH]1 (some centres unmarked) [Example 306] | 7.89
CCC[C@H](C(=O)O)[C@H](Cc1ccc(F)cc1)c1nnn[nH]1 [Example 261] | 8.42
O=C(O)[C@@H](CCCC1CCNCC1)[C@H](Cc1ccc(C2CCNC2)cc1)c1nnn[nH]1 (some centres unmarked) [Example 434] | 7.78
CC(C)C[C@H](C(=O)O)[C@H](Cc1ccc(CN2CCC(O)C2)c(F)c1)c1nn[nH]n1.O=C(O)C(F)(F)F (some centres unmarked) [Example 439, 2,2,2-trifluoroacetate] | 8.36

The record that follows has no pIC50 shown yet.
Find the measured pIC50: item CC(C)C[C@H](C(=O)O)[C@H](Cc1ccc(NCC2CNCCC2O)nc1)c1nnn[nH]1 (some centres unmarked) [Example 323] , target or system VIM-1 (Pseudomonas aeruginosa, UniProt A0A0F7KYQ8).
7.77

###

System: Klebsiella pneumoniae expressing VIM-1 (IHMA599644)
Experiment: Antibiotic potentiation activity: synergistic concentration (MITC95) with imipenem, growth by OD600
Assay type: cell-based
Conditions: 95% inhibition of bacterial growth, strain IHMA599644
# VIM1 KP599644 MITC95 >= 20 µM gives y, anything below gives n

MOL | CATEGORY LABEL
O=C(O)[C@@H](C1CCCC1)[C@H](Cc1ccc(C2CCNCC2)cc1)c1nnn[nH]1 | n
CCC[C@H](C(=O)O)[C@H](Cc1ccc(C(N)=O)cn1)c1nnn[nH]1 | y
CCC[C@H](C(=O)O)[C@H](Cc1ccc(-c2ccc(N(C)C)nc2)cc1)c1nn[nH]n1 | y
O=C(O)[C@@H](CC1CCCC1)[C@H](Cc1ccccc1)c1nnn[nH]1 | y
CC(C)(C)[C@H](C(=O)O)[C@H](Cc1ccc(N)nc1)c1nnn[nH]1 | y

Is it the case that CCC[C@H](C(=O)O)[C@H](Cc1ccc(Br)nc1)c1nnn[nH]1 has VIM1 KP599644 MITC95 reaching or exceeding 20 µM?
y

Is it the case that CCC[C@H](C(=O)O)[C@H](Cc1ccnc(N)c1)c1nnn[nH]1 has VIM1 KP599644 MITC95 reaching or exceeding 20 µM?
n

Is it the case that CNc1ccc(C[C@H](c2nnn[nH]2)[C@@H](C(=O)O)C(C)C)cn1 has VIM1 KP599644 MITC95 reaching or exceeding 20 µM?
n

Is it the case that CCC[C@H](C(=O)O)[C@H](Cc1ccc(-c2cncc(CN3CCCCC3)c2)cc1)c1nn[nH]n1 has VIM1 KP599644 MITC95 reaching or exceeding 20 µM?
y

###

Molecular target: IMP-1 (Serratia marcescens, UniProt P52699)
Assay: Enzyme activity: determination of IC50, fluorescence assay with CCF2-FA substrate
Assay type: biochemical
Settings: IMP-1 enzyme 2 pM, CCF2-FA 1.25 μM, 2 hours at 25° C.; read-out: IMP1 IC50
QUANTITY: IC50 (nM)
The figure you give is taken to be in nM; do not add the unit.

COMPOUND | TEST TARGET | IC50, nM
CCC[C@H](C(=O)O)[C@H](Cc1ccccc1-c1ccc(CO)cc1)c1nn[nH]n1 | IMP-1 (Serratia marcescens, UniProt P52699) | 550
CC(C)(C)[C@H](C(=O)O)[C@H](Cc1ccc(NCCN)nc1)c1nnn[nH]1.O=C(O)C(F)(F)F [Example 427, 2,2,2-trifluoroacetate] | IMP-1 (Serratia marcescens, UniProt P52699) | 342

The record that follows has no IC50 shown yet.
So what does the record say about IC50 for O=C(O)[C@@H](CCCC1CCNCC1)[C@H](Cc1ccc(C2=CCNC2)cc1)c1nnn[nH]1 ?
2000
